Give EC50 group, cGMP in GTM-3 cells for every item shown.
target-system: T1, natriuretic peptide receptor-B (human)
T1 chain: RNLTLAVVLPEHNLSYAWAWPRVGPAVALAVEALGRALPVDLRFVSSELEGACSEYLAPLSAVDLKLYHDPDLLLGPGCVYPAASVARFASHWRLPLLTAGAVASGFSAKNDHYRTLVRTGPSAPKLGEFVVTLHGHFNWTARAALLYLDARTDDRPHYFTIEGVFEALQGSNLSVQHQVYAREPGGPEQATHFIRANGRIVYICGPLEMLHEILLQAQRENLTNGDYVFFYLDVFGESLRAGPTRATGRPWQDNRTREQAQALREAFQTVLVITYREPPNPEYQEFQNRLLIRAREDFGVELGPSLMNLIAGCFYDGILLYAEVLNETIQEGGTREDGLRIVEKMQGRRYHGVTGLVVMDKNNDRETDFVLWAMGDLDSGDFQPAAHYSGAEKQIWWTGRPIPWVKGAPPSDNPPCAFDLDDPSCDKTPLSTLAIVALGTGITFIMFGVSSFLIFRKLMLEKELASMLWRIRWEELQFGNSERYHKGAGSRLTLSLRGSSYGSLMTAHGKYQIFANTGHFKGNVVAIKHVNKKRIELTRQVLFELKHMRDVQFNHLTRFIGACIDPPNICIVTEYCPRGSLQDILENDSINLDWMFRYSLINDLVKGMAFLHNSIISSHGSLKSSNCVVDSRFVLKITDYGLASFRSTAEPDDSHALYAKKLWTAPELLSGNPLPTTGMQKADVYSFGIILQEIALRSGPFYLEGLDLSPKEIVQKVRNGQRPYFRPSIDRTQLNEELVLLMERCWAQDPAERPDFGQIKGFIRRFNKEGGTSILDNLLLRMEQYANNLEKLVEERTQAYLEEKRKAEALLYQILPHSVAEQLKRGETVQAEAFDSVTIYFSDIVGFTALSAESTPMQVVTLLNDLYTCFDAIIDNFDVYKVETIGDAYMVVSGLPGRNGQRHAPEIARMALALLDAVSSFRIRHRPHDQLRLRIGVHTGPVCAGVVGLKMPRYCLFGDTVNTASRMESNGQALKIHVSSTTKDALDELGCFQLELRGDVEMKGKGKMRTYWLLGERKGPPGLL
method: cell-based or functional assay
Numbered stars: 1 amine (or outer) side, 2 acyl side, 3 side chain; on linkers, the order of the positions; unused ones are H or OH. Square brackets hold non-standard residues; d marks the D form. Ends that are not written are not given here. * marks the point of attachment. Npl = (S)-4-methyl-2-(propylamino)pentanoic acid, CCCN([C@@H](CC(C)C)C(=O)[*:2])[*:1]; 6059 = 3-(Octane-1-sulfinyl)-propionic acid, CCCCCCCCS(=O)CCC(=O)*; Pro(trans-4-NH2) = O=C([C@@H]1C[C@@H](N[*:3])CN1[*:1])[*:2]; Sni = (S)-nipecotic acid, O=C([C@H]1CCCN([*:1])C1)[*:2]; Phe(4-F) = N[C@@H](Cc1ccc(F)cc1)C(=O)O; Cya = N[C@@H](CS(=O)(=O)O)C(=O)O; Hyp = O=C(O)[C@@H]1C[C@@H](O)CN1; AR‑314‑170 = not defined here; NMeL = CN[C@@H](CC(C)C)C(=O)O; orn(Me2) = not defined here; Octanoyl = CCCCCCCC(=O)*; 2906 = cyclobutyl-amine; Che = not defined here; leu = not defined here; mpa = not defined here; ppa = not defined here; Ac3c = NC1(C(=O)O)CC1; Occ = octanoic acid

[ask] Determine its reported EC50 group, cGMP in GTM-3 cells: [Occ][Sni]F[mpa]L[Hyp][NMeL]DRI-NH2 (reading uncertain; also: printed as Occ-Sni-Phe-mpa-Leu-Hyp-Nml-Asp-Arg-Ile-NH2) [JAL-1888]
[reply] ≤ 5 µM

[ask] Determine its reported EC50 group, cGMP in GTM-3 cells: Octanoyl-[Sni][Phe(4-F)][leu]L[Hyp][NMeL]DRI-NH2 (reading uncertain; also: printed as Occ-Sni-Pff-leu-Leu-Hyp-Nml-Asp-Arg-Ile-NH2) [JAL-1487]
[reply] ≤ 1 µM

[ask] Determine its reported EC50 group, cGMP in GTM-3 cells: 6059-FRL[Hyp][NMeL]DRI-NH2 (not fully specified (some residues); printed as 6059-Phe-arg-Leu-Hyp-Nml-Asp-Arg-Ile-NH2) [JAL-1243]
[reply] ≤ 5 µM

[ask] Determine its reported EC50 group, cGMP in GTM-3 cells: Octanoyl-[dA]FGLP[Npl]DRI-NH2 [JAL-1045]
[reply] ≤ 15 µM

[ask] Determine its reported EC50 group, cGMP in GTM-3 cells: [Occ][Sni]F[orn(Me2)]L[Pro(trans-4-NH2)][NMeL]VP[Che] (reading uncertain; also: printed as Occ-Sni-Phe-orn(Me2)-Leu-Tap-Nml-Val-Pro-Che) [JAL-1846]
[reply] ≤ 5 µM

[ask] Determine its reported EC50 group, cGMP in GTM-3 cells: [Occ][Sni]F[ppa]L[Hyp][NMeL]DRI-NH2 (reading uncertain; also: printed as Occ-Sni-Phe-ppa-Leu-Hyp-Nml-Asp-Arg-Ile-NH2) [JAL-1889]
[reply] ≤ 5 µM

[ask] Determine its reported EC50 group, cGMP in GTM-3 cells: [Occ][Sni]F[leu]L[Hyp][NMeL][Cya]RI-NH2 (reading uncertain; also: printed as Occ-Sni-Phe-leu-Leu-Hyp-Nml-Cya-Arg-Ile-NH2) [JAL-1922]
[reply] ≤ 5 µM

[ask] Determine its reported EC50 group, cGMP in GTM-3 cells: Octanoyl-[Sni]FTL[Hyp][NMeL]DRI-NH2 (not fully specified (some residues); printed as Occ-Sni-Phe-thr-Leu-Hyp-Nml-Asp-Arg-Ile-NH2) [JAL-1883]
[reply] ≤ 15 µM

[ask] Determine its reported EC50 group, cGMP in GTM-3 cells: [Occ][Sni]F[metO2]L[Hyp][NMeL]DRI-NH2 [JAL-1885]
[reply] ≤ 5 µM

[ask] Determine its reported EC50 group, cGMP in GTM-3 cells: Octanoyl-[dA]F[dL]L[Pro(trans-4-NH2)][NMeL]DRI-NH2 [JAL-1296]
[reply] ≤ 1 µM

[ask] Determine its reported EC50 group, cGMP in GTM-3 cells: XXAFGLKLDRIS (Hex-Ebe-ala-Phe-Gly-Leu-Lys-Leu-Asp-Arg-Ile-Ser-NH2) [JAL-0540]
[reply] ≤ 15 µM

[ask] Determine its reported EC50 group, cGMP in GTM-3 cells: XXFGLKLDRI (HELM PEPTIDE1{[CCCCCC(=O)[*:2]].[O=C(Cc1cccc(N[*:1])c1)[*:2]].F.G.L.K.L.D.R.I.[am]}$$$$V2.0; SMILES CCCCCC(=O)Nc1cccc(CC(=O)N[C@@H](Cc2ccccc2)C(=O)NCC(=O)N[C@@H](CC(C)C)C(=O)N[C@@H](CCCCN)C(=O)N[C@@H](CC(C)C)C(=O)N[C@@H](CC(=O)O)C(=O)N[C@@H](CCCNC(=N)N)C(=O)N[C@H](C(N)=O)[C@@H](C)CC)c1) [JAL-0649]
[reply] ≤ 15 µM

[ask] Determine its reported EC50 group, cGMP in GTM-3 cells: [Occ][dA]F[dR]L[Hyp][NMeL]VRI-NH2 [JAL-1331]
[reply] ≤ 5 µM

[ask] Determine its reported EC50 group, cGMP in GTM-3 cells: Octanoyl-[dA][dA]FGLKIDRI-NH2 [JAL-0770]
[reply] ≤ 15 µM

[ask] Determine its reported EC50 group, cGMP in GTM-3 cells: [AR‑314‑170]F[leu]L[Hyp][NMeL]DRI-NH2 (reading uncertain; also: printed as (AR-314-170)-Phe-leu-Leu-Hyp-Nml-Asp-Arg-Ile-NH2) [JAL-1869-2]
[reply] ≤ 15 µM

[ask] Determine its reported EC50 group, cGMP in GTM-3 cells: [Occ][Sni]FLL[Hyp][NMeL]DP[2906] (not fully specified (residue 4); printed as Occ-Sni-Phe-leu-Leu-Hyp-Nml-Asp-Pro-2906) [JAL-1508]
[reply] ≤ 15 µM

[ask] Determine its reported EC50 group, cGMP in GTM-3 cells: [Occ][Ac3c]FGLKLDRI-NH2 [JAL-0761]
[reply] ≤ 15 µM
